Molecular target: BChE (Equus caballus)
Construct: purchased Sigma-Aldrich, Hamburg, Germany; host or cells: equine serum
Sequence (P81908 whole entry): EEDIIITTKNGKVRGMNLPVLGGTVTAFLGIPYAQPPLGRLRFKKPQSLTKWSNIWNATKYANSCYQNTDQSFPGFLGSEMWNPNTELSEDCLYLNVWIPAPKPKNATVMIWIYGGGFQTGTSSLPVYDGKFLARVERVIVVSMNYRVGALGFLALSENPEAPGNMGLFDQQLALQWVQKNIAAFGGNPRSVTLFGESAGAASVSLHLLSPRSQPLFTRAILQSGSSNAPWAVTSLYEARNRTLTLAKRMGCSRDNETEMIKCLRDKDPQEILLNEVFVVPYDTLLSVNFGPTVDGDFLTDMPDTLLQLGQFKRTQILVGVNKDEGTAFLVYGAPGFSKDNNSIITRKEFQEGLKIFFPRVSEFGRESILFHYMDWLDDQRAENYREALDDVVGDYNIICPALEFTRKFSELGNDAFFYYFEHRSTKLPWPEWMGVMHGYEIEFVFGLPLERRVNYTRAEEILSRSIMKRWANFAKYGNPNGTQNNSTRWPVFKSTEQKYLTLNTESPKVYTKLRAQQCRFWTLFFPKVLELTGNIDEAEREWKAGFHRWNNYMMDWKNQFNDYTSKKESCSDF
Test: biochemical
Details: read-out: Inhibition Activity 200 µM BChE
quantity: inhibition at 200 µM (%)
Numbers only, in %.

As a guide, the following entries are already answered.
| compound | inhibition at 200 µM / % |
| --- | --- |
| Cc1ccc(C)n1-c1ccc(C(=O)NCC(=O)O)cc1 | 0 |
| Cc1ccc(C)n1-c1ccc(Br)cc1 | 0 |

Hello, I would appreciate it if you could give inhibition at 200 µM for each entry below.
1. Cc1ccc(C)n1C(Cc1cnc[nH]1)C(=O)O (stereo not drawn)
2. COc1cc2c(cc1OC)C(=O)C(CC1CCN(Cc3ccccc3)CC1)C2 (stereo not drawn) [Donepezil, reference compound]
3. Cc1ccc(C)n1-c1ccc(CC(=O)O)cc1

Output:
1. 18
2. 92.2
3. 0

Input: Dear colleague, I am looking for the recorded inhibition at 200 µM of the following compound: `Cc1ccc(C)n1-c1ccc(C(=O)O)cc1O`
Output: 3.85
